Where do these numbers come from? They come from patent US7662977B2.

Experiment: Reversibility of prodrugs to compound 1 in aqueous phosphate buffer (LC-MS over time)
Settings: phosphate buffer, pH 7.4

MOL_SMILES	half-life
CC(C)(C)OC(=O)CCC(=O)OC[N+]1(c2cc(=O)c3cccc(-c4ccccc4)c3o2)CCOCC1	~600 min
CC(=O)OC[N+]1(c2cc(=O)c3cccc(-c4ccccc4)c3o2)CCOCC1	~600 min
COCCOCCOCCOCCC(=O)OC[N+]1(c2cc(=O)c3cccc(-c4ccccc4)c3o2)CCOCC1	~180 min
